Target: T1, biotinylated human DLL3 protein expressed as a human IgG1 fusion protein (human, UniProt Q9NYJ7 27-492, limits assumed, biotinylated)
T1 sequence: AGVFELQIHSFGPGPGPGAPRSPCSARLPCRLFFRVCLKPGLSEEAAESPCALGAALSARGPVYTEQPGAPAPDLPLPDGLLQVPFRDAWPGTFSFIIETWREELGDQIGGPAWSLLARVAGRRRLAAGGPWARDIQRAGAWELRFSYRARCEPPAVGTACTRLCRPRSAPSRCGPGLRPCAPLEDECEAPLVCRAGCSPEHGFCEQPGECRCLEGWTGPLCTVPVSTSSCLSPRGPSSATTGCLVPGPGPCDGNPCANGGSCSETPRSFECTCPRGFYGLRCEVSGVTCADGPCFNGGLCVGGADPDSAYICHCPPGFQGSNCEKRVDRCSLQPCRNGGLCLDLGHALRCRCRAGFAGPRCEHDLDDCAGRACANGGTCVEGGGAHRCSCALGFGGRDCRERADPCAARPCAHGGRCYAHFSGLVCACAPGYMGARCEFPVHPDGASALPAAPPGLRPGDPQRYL
Measurement description: Octet BLI, single 50 nM
Under this convention, TRUE denotes Kd strictly below 9 nM and FALSE denotes Kd at or above 9 nM.

4D09 anti-DLL3 trispecific protein (other, not shown: linker 1808, anti-albumin sdAb, linker 1808, anti-CD3 fragment, His6 1819) EVQLVESGGGLVQPGGSLTLSCAASGSSVKFLSMAWYRQAPGKKRELVAGISADGSTDYILSVKGRFTISRDNAKNSVYLQMNSLRAEDTAVYYCYAYEWTTRYTYWGQGTLVTVSS
TRUE
4G010 anti-DLL3 trispecific protein (other, not shown: linker 1808, anti-albumin sdAb, linker 1808, anti-CD3 fragment, His6 1819) EVQLVESGGGLVQPGGSLTLSCAASGHSVSFLSMAWYRQAPGKKRELVAGISADGSTDYIASVKGRFTISRDNAKNSVYLQMNSLRAEDTAVYYCYAYRWSTRYTYWGQGTLVTVSS
FALSE
2G011 anti-DLL3 trispecific protein (other, not shown: linker 1808, anti-albumin sdAb, linker 1808, anti-CD3 fragment, His6 1819) EVQLVESGGGLVQPGGSLTLSCVASGSTSSINAMGWYRRAPGKQRELPAGISRDGSKVYADSVKGRFTISRDNAKNSVYLQMNSLRAEDTAVYYCYYFRYVSGSSMRYWGQGTLVTVSS
FALSE

Does this binder meet the criterion Kd < 9 nM? 4E01 anti-DLL3 trispecific protein (other, not shown: linker 1808, anti-albumin sdAb, linker 1808, anti-CD3 fragment, His6 1819) EVQLVESGGGLVQPGGSLTLSCAASGSSVSFLSVAWYRQAPGKKRELVAGISRDGSTDYIDSVKGRFTISRDNAKNSVYLQMNSLRAEDTAVYYCYAYRWRTRYTYWGQGTLVTVSS FALSE

Another binder: 3A011 anti-DLL3 trispecific protein (other, not shown: linker 1808, anti-albumin sdAb, linker 1808, anti-CD3 fragment, His6 1819) EVQLVESGGGLVQPGGSLTLSCAASGSSVSFLSLAWYRQAPGKKRELVAGISTDGSTDYIDSVKGRFTISRDNAKNSVYLQMNSLRAEDTAVYYCYAYRWRTRYTYWGQGTLVTVSS TRUE

Then what about the binder 4H09 anti-DLL3 trispecific protein (other, not shown: linker 1808, anti-albumin sdAb, linker 1808, anti-CD3 fragment, His6 1819) EVQLVESGGGLVQPGGSLTLSCAASGSSVSKLSMAWYRQAPGKKRELVAGISADGSTDYRDSVKGRFTISRDNAKNSVYLQMNSLRAEDTAVYYCYAYRWTYRYTYWGQGTLVTVSS ? FALSE

Next entry: 4D03 anti-DLL3 trispecific protein (other, not shown: linker 1808, anti-albumin sdAb, linker 1808, anti-CD3 fragment, His6 1819) EVQLVESGGGLVQPGGSLTLSCAASGSSVRFLSMAWYRQAPGKKRELVAGISATGSTDYIDSVKGRFTISRDNAKNSVYLQMNSLRAEDTAVYYCYAYRWTRRYTYWGQGTLVTVSS FALSE

Now try 2F06 anti-DLL3 trispecific protein (other, not shown: linker 1808, anti-albumin sdAb, linker 1808, anti-CD3 fragment, His6 1819) EVQLVESGGGLVQPGGSLTLSCVASGSTSSINAYGWYRRAPGKQRELVAGISSDGSAVYADSVKGRFTISRDNAKNSVYLQMNSLRAEDTAVYYCYYFRTHSGSSMRYWGQGTLVTVSS . FALSE

What do you get for 3G010 anti-DLL3 trispecific protein (other, not shown: linker 1808, anti-albumin sdAb, linker 1808, anti-CD3 fragment, His6 1819) EVQLVESGGGLVQPGGSLTLSCAASGSSVSFLSMAWYRQAPGKKRELVAGISVDGSTDYIDSVKGRFTISRDNAKNSVYLQMNSLRAEDTAVYYCYAYRWRTRYTYWGQGTLVTVSS ? TRUE

Again, but for 2E06 anti-DLL3 trispecific protein (other, not shown: linker 1808, anti-albumin sdAb, linker 1808, anti-CD3 fragment, His6 1819) EVQLVESGGGLVQPGGSLTLSCVASGSTSSINAMGWYRRAPGKQRELVAGISSDGSKVYASSVKGRFTISRDNAKNSVYLQMNSLRAEDTAVYYCYYFRTVRGSSMRYWGQGTLVTVSS FALSE

Please do the same for 3B04 anti-DLL3 trispecific protein (other, not shown: linker 1808, anti-albumin sdAb, linker 1808, anti-CD3 fragment, His6 1819) EVQLVESGGGLVQPGGSLTLSCAASGSNVSFLSMAWYRQAPGKKRELVAGISARGSTDYIDSVKGRFTISRDNAKNSVYLQMNSLRAEDTAVYYCYAYHWTTRYTYWGQGTLVTVSS as well. FALSE

Field entry: 1A012 anti-DLL3 trispecific protein (other, not shown: linker 1808, anti-albumin sdAb, linker 1808, anti-CD3 fragment, His6 1819) EVQLVESGGGLVQPGGSLTLSCVASGSTSSINAMAWYRRAPGKQRELVAGISSDGSKVYSDSVKGRFTISRDNAKNSVYLQMNSLRAEDTAVYYCYYFRTVLGSSMRYWGQGTLVTVSS TRUE

2F07 anti-DLL3 trispecific protein (other, not shown: linker 1808, anti-albumin sdAb, linker 1808, anti-CD3 fragment, His6 1819) EVQLVESGGGLVQPGGSLTLSCVASGSTSSINAVGWYRRAPGKQRELVAGISSDGSSVYADSVKGRFTISRDNAKNSVYLQMNSLRAEDTAVYYCYYFRTVSTSSMRYWGQGTLVTVSS , same question. TRUE
